# ASSAY_TARGET: Fes (UniProt P07332)
# Sequence (P07332 whole entry, looked up): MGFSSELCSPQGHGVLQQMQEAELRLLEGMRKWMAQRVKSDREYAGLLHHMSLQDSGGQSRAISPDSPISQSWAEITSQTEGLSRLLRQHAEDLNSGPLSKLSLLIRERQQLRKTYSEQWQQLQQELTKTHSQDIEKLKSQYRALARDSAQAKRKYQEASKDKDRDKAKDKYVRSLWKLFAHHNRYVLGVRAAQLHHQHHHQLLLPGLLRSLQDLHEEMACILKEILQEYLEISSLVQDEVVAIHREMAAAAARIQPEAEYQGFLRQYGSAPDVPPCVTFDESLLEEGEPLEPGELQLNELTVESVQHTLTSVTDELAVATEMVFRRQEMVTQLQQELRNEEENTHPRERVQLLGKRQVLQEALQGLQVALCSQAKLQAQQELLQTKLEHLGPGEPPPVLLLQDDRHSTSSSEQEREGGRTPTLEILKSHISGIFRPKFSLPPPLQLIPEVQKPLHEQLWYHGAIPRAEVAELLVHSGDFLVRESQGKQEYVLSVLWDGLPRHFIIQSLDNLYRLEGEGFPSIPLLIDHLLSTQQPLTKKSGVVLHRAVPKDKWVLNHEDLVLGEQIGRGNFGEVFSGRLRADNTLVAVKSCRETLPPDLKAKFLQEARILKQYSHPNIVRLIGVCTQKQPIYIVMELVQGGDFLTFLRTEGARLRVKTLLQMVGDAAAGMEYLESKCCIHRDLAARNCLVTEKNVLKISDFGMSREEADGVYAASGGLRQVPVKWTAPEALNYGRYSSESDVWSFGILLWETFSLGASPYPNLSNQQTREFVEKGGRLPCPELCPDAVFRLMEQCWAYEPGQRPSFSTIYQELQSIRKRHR
# MEASUREMENT_PROTOCOL: phosphorylation enrichment, bacterial display (enrichment ratio); higher = better substrate or ligand; peptides without Tyr show the background
READOUT_TYPE: phosphorylation enrichment
Number, no unit, nothing else.

Below are worked cases with known answers.
EEQKKYYNATK [SCN5A_Y1494_M1498T] : 0.673
VVKTVYSLQPP [KNSTRN_Y87] : 0.817
NKVKFYIPYMN [NCR1_Y84_D87Y] : 1.06
VHSGTYQVTVC [MYBPC3_Y1043_R1048C] : 1.23
LDLSYYPTSSS [EMD_Y182] : 1.81
MANFVYKAGPS [MAML2_Y515_M514V_YF] : 0.65
GGRIDYIAGLV [APRT_Y60_D65V] : 1.11
YKGKNYKPLDL [RPL35_Y78_K77N] : 0.697
YSPYDYQPCLA [TNS1_Y798] : 1.28
FGVTLYPNSGE [MEP1A_Y472_R476G] : 1.12

What value of phosphorylation enrichment has been reported for the following sequence? GGEAIYAAPFA [Abl_opt_1995]
1.11

Item under review: DFGSGYPNDPK [RNASEH2A_Y210_YF] . Reported phosphorylation enrichment?
0.678

Dear colleague, I am looking for the recorded phosphorylation enrichment of the following sequence: QDGFSYLSRQM [LDLR_Y847_P848L_YF]
1.07

Could you share which phosphorylation enrichment value was measured for KLSFSYGQALQ [ALDOB_Y302_R304Q] ?
1.1

Fill in: phosphorylation enrichment of ARAGEYGAEAL [HBA1_Y25_H21R] is ___
0.829

###

# ASSAY_TARGET: c-Src SH2;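 further: peptide library displayed on the E. coli surface as eCPX fusions, selected cells deep-sequenced, score is each peptide's frequency after selection divided by its frequency in the input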
# MEASUREMENT_PROTOCOL: SH2 binding enrichment of the phosphorylated peptide, bacterial display (enrichment ratio); higher = better substrate or ligand; peptides without Tyr show the background
Hi, to clarify the labels: Met covers SH2 binding enrichment from 0.7 upward, Not met covers anything below 0.7.

GRRNTCYASIA [ACADM_Y352_Y352C] : Met

For this sequence, is measured SH2 binding enrichment 0.7 or higher? EKEKEYMLPLD [DNM2_Y563_K562E]
Not met

API: above_or_equal(metric=SH2 binding enrichment, cutoff=0.7) for item RVGVDYEGGGC [PLOD1_Y675]
Met

Decide: SH2 binding enrichment of QSRSPYSSRHS [CDK13_Y415_R410Q] >= 0.7?
Not met

For this sequence, is measured SH2 binding enrichment 0.7 or higher? KNKELYSDLFD [PDE10A_Y300]
Met

Please tell me: is the sequence PAVGIYNGNIN [CDCP1_Y707_D709G] at or over 0.7 in terms of SH2 binding enrichment?
Not met

###

# ASSAY_TARGET: Hck (UniProt P08631)
# Sequence (P08631 whole entry, looked up): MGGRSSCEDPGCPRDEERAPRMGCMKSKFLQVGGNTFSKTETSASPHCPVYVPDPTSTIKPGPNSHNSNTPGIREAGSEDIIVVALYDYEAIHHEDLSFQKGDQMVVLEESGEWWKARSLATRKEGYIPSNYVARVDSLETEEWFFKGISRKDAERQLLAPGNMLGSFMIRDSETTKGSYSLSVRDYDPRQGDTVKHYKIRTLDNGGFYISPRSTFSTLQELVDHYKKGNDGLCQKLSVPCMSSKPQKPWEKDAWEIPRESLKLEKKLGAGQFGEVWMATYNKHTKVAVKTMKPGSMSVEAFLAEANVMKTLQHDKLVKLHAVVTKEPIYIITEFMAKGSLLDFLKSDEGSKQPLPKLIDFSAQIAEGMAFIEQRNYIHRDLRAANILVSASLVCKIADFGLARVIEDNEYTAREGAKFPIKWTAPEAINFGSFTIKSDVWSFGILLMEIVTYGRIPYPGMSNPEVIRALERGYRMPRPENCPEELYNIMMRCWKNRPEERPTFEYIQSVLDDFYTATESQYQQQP
# MEASUREMENT_PROTOCOL: phosphorylation enrichment, bacterial display (enrichment ratio); higher = better substrate or ligand; peptides without Tyr show the background
Binary classification by phosphorylation enrichment, with 0.6 as an inclusive lower bound for y; all other cases are n.

AIKSFYAALID [RYR1_Y2426_M2423K] : y
HRAVEYLLMGI [RAD23A_Y197_T200M] : n
LVTAWYIGFLC [KCNQ2_Y237] : y

Tell me whether phosphorylation enrichment is at least 0.6 here: HNVPICEGYAL [ACTC1_Y168_Y168C]
y

Confirm if phosphorylation enrichment reported for the sequence FMCKVYSDRQP [FGFR1_Y280_P283R] is 0.6 or above.
n

Is the recorded value of phosphorylation enrichment equal to or greater than 0.6 for this sequence? DAKTIYDFTDT [PDK1_Y136_A134T]
y

Reported phosphorylation enrichment reaches at least 0.6 for KIPGRYYETGS [PAX2_Y72_L69P] ?
n

###

# ASSAY_TARGET: Fes (UniProt P07332)
# MEASUREMENT_PROTOCOL: phosphorylation enrichment, bacterial display (enrichment ratio); higher = better substrate or ligand; peptides without Tyr show the background
Answer f if phosphorylation enrichment is under 1, and t if it is 1 or more.

IEKLTYIDKWF [CPS1_Y872] : f
QAQMDYRRLQP [MPL_Y591] : f
GRDQPYSGTGD [TYRO3_Y828_A831T] : f
TPRNTYKMTSL [MKI67_Y849] : f
HAVYVCDICHV [TWNK_Y508_Y508C] : t

Kindly determine if phosphorylation enrichment recorded for FVGGFYGGCNE [CTSC_Y352_YF] is above or exactly 1.
t

Given the entry EERNTYVNTTL [TEK_Y1102_K1100N] , answer whether its phosphorylation enrichment meets or surpasses 1.
f

Could you tell me if the measured phosphorylation enrichment of CTTIRYNYMCN [TP53_Y234_H233R] reaches 1 or more?
f

For this sequence, is measured phosphorylation enrichment 1 or higher? HSGVSYFINLC [IGF2R_Y2024_N2020S_YF]
t

Identify whether the reported phosphorylation enrichment of the following sequence is 1 or greater: TLQRMYGCDVG [HLA-B_Y123_S121R]
t

Check if phosphorylation enrichment >= 1 (inclusive). Item: EASGIYVKSII [PATJ_Y396]
t

Determine whether this sequence has phosphorylation enrichment no lower than 1: RNIQQCNSFVS [PRKAR1A_Y373_Y373C]
t

Reported phosphorylation enrichment reaches at least 1 for RCKSHYAAFSV [C1QTNF1_Y145] ?
t

###

# ASSAY_TARGET: EPHB2 (UniProt P29323)
# Sequence (P29323 whole entry, looked up): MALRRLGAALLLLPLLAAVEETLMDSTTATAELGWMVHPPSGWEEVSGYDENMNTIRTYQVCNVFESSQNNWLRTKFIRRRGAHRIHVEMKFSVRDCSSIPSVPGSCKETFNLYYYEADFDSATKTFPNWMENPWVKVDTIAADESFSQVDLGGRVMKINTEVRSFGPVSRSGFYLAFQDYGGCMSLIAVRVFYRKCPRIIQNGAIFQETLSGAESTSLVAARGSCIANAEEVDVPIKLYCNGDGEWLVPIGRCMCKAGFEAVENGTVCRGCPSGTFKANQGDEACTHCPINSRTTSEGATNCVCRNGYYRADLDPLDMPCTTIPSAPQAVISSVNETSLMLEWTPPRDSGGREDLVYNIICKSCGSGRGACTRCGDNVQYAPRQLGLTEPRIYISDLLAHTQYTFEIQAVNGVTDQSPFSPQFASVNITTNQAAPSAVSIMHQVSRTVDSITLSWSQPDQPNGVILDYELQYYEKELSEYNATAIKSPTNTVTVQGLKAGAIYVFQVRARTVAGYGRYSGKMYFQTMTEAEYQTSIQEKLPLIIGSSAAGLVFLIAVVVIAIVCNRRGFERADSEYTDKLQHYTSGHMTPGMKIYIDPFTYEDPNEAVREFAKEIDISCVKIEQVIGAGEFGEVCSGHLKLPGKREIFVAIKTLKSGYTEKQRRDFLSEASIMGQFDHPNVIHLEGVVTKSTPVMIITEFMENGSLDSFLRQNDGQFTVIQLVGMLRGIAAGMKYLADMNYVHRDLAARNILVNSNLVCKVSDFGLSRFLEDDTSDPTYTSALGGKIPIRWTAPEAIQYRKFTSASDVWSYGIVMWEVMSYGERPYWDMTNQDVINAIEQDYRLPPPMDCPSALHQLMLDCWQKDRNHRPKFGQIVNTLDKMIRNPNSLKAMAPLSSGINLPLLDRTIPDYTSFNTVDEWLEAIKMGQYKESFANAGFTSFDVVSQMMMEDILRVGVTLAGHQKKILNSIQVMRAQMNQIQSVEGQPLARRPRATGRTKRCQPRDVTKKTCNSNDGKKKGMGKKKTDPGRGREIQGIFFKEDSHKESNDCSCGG
# MEASUREMENT_PROTOCOL: phosphorylation enrichment, bacterial display (enrichment ratio); higher = better substrate or ligand; peptides without Tyr show the background
READOUT_TYPE: phosphorylation enrichment

DRLAVCIDRVR [LMNA_Y45_Y45C] : 0.518
KKCTRYIDCDL [ASPA_Y64] : 0.434
PNQRRYVYYYS [PTEN_Y174_S170N] : 1.57
IVRSPYEDLED [VHL_Y185_L184P] : 0.682
RRNNSYTCFTA [SLC20A2_Y386_YF] : 1.65

Param readout= phosphorylation enrichment; system= EPHB2 (UniProt P29323); entry= EDKFMYLEFPQ [PTEN_Y240_F241L] ; returns value.
0.756

Please state recorded phosphorylation enrichment (tested on EPHB2 (UniProt P29323)) of MEKEKYVSFIS [JMJD1C_Y596_YF]
0.417

Lab note: need phosphorylation enrichment with EPHB2 (UniProt P29323) for entry TPRNTYKMTSV [MKI67_Y849_L854V] , please look it up.
0.468

Which measured phosphorylation enrichment belongs to YRIGPYQPSVP [MATR3_Y784_N787S] , tested on EPHB2 (UniProt P29323)?
0.434

###

# ASSAY_TARGET: Hck (UniProt P08631)
# MEASUREMENT_PROTOCOL: phosphorylation enrichment, bacterial display (enrichment ratio); higher = better substrate or ligand; peptides without Tyr show the background
Catalogue of phosphorylation enrichment values
Number only, no unit.

EVRAQYEEIAQ [KRT76_Y361] : 0.614
TINPIHEHVGY [CHN1_Y143_Y143H] : 0.474
GDPTEYYITAI [IGSF22_Y501_S503I] : 0.562
PEEKVYLSRGD [CRACR2A_Y141_H136P] : 1.1

Name the reported phosphorylation enrichment value associated with the sequence RNLDTYQKRLR [PLA2G2D_Y126]
0.55

Please report the recorded phosphorylation enrichment for VVKLAYNENDN [CAMKK2_Y183] .
0.527

Entry under review: EQDRAYLEGTC [HLA-C_Y183_L180D] . Reported phosphorylation enrichment?
0.507

Need phosphorylation enrichment of IYGASYVPFAA [RBM47_Y541] , thanks.
7.75

Could you share which phosphorylation enrichment value was measured for LKLIQYHLTQQ [AKAP4_Y554] ?
0.534

# get_value(readout='phosphorylation enrichment', item= CTTIRYNYMCN [TP53_Y234_H233R] )
0.449

Which measured phosphorylation enrichment value corresponds to SYCYRYRCAAQ [SUMF1_Y344_R349Q] ?
0.5

So what's the measured phosphorylation enrichment for this one? TLEKFYFAFPG [SLC1A1_Y51]
1.62

I'd like to know its phosphorylation enrichment. The sequence in question is ANAFIYDVQLP [L1CAM_Y420_V421D_YF]
4.65

Give its phosphorylation enrichment value. Item: VIGRMYDYHVL [RPF2_Y109]
0.538

###

# ASSAY_TARGET: Jak2 (UniProt O60674)
# Sequence (O60674 whole entry, looked up): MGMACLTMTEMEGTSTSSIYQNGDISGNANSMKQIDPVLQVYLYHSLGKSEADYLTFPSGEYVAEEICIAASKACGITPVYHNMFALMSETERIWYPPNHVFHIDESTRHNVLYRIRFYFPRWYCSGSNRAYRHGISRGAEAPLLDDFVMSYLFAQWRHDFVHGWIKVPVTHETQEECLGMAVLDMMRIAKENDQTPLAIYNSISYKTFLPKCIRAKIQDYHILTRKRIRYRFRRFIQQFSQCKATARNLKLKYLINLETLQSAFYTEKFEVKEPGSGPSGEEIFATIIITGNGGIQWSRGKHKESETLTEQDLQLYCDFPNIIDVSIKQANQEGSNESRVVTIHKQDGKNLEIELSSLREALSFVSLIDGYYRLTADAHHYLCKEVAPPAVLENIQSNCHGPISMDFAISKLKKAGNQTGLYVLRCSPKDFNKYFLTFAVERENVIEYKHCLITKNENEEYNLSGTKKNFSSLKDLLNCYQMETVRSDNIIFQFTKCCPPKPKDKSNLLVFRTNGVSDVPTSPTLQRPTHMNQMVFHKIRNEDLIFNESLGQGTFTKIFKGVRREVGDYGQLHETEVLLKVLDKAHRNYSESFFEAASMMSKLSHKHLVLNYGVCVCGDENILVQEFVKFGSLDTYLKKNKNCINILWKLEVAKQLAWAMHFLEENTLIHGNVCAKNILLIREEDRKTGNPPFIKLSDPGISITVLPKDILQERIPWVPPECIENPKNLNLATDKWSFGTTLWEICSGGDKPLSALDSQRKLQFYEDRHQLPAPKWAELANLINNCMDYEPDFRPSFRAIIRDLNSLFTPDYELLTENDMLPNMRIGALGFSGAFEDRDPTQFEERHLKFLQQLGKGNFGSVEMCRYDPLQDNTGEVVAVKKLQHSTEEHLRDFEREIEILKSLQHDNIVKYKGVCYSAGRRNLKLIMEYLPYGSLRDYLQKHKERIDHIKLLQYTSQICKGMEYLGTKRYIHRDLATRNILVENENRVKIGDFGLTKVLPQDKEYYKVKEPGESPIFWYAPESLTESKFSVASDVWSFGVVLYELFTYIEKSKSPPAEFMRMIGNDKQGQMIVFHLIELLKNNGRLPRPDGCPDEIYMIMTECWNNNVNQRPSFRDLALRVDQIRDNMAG
# MEASUREMENT_PROTOCOL: phosphorylation enrichment, bacterial display (enrichment ratio); higher = better substrate or ligand; peptides without Tyr show the background
Everything with phosphorylation enrichment lower than 1 is 0 (no); everything else, including exactly 1, is 1 (yes).

I'd appreciate it if you could say whether WFPANYVKLLN [ITSN1_Y1132_S1137N] has phosphorylation enrichment at least equal to 1.
1 (yes)

Does the reported phosphorylation enrichment for GVTLLYFGRFN [ADGRD1_Y85_YF] fall at or above the 1 mark?
1 (yes)
